As shown below, each of these molecules has a reported melting point value.

- MOLECULE: "N#Cc1nn(-c2c(Cl)cc(C(F)(F)F)cc2Cl)c(N)c1C=O"
  melting point: "194 to 197 °C"

(Q) Would you mind telling me what melting point value was observed for CNC(=O)NS(=O)(=O)c1cc2c(cc1OC)OCCC2CNC(=O)c1cc(F)ccc1OC (centres undefined) ?
(A) 193 to 194 °C

(Q) Would you mind telling me what melting point value was observed for CC(C)N(C(=O)n1oc(=O)n(Cc2ccccc2)c1=O)c1ccc(F)cc1 ?
(A) 95 to 96 °C

(Q) Would you mind telling me what melting point value was observed for CC(C)(c1cc(F)ccc1F)S(=O)(=O)c1ccc(Cl)cc1 ?
(A) 147 to 148 °C

(Q) Would you mind telling me what melting point value was observed for COc1cc2c(Nc3ccc4cn[nH]c4c3)c(C#N)cnc2cc1OCCN(C)C ?
(A) 218 to 219 °C

(Q) Would you mind telling me what melting point value was observed for CC1CC2C3CCC4=CC(=O)C=CC4(C)C3=CCC2(C)C1C(=O)CN1CCN(c2cc(NCC(C)(C)C)nc(NCC(C)(C)C)n2)CC1 (centres undefined) ?
(A) 140 to 150 °C

(Q) Would you mind telling me what melting point value was observed for C[C@H]1C=CC2=C[C@@H](O)C[C@H](OC(=O)C(C)(C)C)[C@@H]2[C@H]1CC[C@@H]1C[C@@H](O)CC(=O)O1 ?
(A) 132 to 133 °C

(Q) Would you mind telling me what melting point value was observed for Cn1nnn(-c2c(Cl)ccc(C(=O)O)c2Cl)c1=O ?
(A) 221 to 225 °C

(Q) Would you mind telling me what melting point value was observed for CC(C)CCN1CCC(N(C)S(=O)(=O)c2ccc(Nc3nccc(Nc4ccc(F)cc4)n3)cc2)CC1 ?
(A) 184 to 185 °C
